Numbers sourced from patent US8987275B2.

A collection of compounds and their measured pIC50
Target: Bcr-Abl (Homo sapiens, UniProt P00519)
Construct: BCR (N-terminal fusion partner, p210 form, B2A2 junction); the other entry of the earlier key: BCR (P11274, Breakpoint cluster region protein)
Sequence (P00519 with tags, fused parts or gaps): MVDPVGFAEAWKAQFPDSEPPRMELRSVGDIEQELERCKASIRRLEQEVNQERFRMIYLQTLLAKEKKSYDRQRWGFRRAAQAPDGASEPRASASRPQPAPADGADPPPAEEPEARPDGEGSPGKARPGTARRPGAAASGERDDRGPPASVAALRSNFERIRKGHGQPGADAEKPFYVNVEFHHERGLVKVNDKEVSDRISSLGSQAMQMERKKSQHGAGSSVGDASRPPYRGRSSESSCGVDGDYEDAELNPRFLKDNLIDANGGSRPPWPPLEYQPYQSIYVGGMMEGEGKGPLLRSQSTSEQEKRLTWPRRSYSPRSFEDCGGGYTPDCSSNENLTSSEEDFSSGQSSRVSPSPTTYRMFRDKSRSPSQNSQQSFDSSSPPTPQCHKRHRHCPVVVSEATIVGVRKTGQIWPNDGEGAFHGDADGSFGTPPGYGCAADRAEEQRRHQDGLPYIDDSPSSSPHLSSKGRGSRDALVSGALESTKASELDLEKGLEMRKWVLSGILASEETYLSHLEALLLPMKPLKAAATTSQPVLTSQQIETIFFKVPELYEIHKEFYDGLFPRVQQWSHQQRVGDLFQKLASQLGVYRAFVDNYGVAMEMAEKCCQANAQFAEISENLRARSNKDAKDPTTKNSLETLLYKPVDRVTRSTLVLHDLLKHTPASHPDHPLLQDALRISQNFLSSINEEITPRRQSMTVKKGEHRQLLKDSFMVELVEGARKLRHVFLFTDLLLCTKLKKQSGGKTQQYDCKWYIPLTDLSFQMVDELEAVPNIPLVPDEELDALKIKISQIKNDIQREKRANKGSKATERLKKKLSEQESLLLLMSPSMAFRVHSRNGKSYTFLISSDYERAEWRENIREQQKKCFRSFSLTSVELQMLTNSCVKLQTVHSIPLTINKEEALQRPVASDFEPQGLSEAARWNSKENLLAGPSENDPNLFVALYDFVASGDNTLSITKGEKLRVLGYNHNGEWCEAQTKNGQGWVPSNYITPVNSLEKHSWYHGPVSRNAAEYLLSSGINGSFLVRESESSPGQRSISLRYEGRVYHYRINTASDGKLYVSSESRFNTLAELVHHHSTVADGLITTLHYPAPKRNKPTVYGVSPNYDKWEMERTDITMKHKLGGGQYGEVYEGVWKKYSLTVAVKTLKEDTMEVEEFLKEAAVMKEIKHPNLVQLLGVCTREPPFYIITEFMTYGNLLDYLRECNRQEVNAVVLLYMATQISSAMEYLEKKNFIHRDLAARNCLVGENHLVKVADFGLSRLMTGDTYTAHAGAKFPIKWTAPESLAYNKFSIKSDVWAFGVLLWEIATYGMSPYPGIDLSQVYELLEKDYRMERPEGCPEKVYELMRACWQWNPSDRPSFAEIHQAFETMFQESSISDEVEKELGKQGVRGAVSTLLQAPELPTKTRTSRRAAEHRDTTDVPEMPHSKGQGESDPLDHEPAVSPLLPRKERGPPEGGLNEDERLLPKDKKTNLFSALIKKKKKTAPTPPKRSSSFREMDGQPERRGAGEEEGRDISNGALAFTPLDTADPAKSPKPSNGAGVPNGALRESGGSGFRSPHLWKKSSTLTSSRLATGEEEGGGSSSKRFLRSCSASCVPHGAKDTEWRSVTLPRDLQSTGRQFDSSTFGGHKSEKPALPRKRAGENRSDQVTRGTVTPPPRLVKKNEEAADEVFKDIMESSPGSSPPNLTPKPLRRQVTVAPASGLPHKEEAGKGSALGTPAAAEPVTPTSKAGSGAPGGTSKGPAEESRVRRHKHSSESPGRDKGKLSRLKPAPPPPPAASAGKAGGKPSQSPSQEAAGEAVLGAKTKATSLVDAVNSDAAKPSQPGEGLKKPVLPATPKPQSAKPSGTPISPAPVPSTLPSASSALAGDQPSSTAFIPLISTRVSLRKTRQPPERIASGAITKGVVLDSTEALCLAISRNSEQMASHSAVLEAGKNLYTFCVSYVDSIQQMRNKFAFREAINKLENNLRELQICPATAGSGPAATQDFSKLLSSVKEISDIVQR
Assay: IC50 of compounds against kinase target Bcr-Abl (Table I)
Remember the convention: pIC50 equals -log10 of concentration in molar.

>  <Compound>
Cc1ccc(C(=O)Nc2cccc(C(F)(F)F)c2)cc1-c1ccc2c(NC(=O)C3CC3)n[nH]c2c1 [Compound 15]

>  <Study System>
Bcr-Abl (Homo sapiens, UniProt P00519)

>  <pIC50>
5.92

$$$$
>  <Compound>
CCN1CCN(Cc2ccc(NC(=O)c3cccc(Nc4ccc5c(NC(=O)C6CC6)n[nH]c5c4)c3)cc2C(F)(F)F)CC1 [Compound 24]

>  <Study System>
Bcr-Abl (Homo sapiens, UniProt P00519)

>  <pIC50>
5.62

$$$$
>  <Compound>
CCN1CCN(Cc2ccc(NC(=O)c3cccc(-c4ccc5c(NC(=O)C6CC6)n[nH]c5c4)c3)cc2C(F)(F)F)CC1 [Compound 19]

>  <Study System>
Bcr-Abl (Homo sapiens, UniProt P00519)

>  <pIC50>
6.19

$$$$
>  <Compound>
O=C(Nc1cccc(-c2ccc3c(NC(=O)C4CC4)n[nH]c3c2)c1)C1CC1 [Compound 22]

>  <Study System>
Bcr-Abl (Homo sapiens, UniProt P00519)

>  <pIC50>
6.44

$$$$
>  <Compound>
COc1cc(Nc2ccc3c(NC(=O)C4CC4)n[nH]c3c2)cc(C(=O)Nc2ccc(CN3CCN(C)CC3)c(C(F)(F)F)c2)c1 [Compound 26]

>  <Study System>
Bcr-Abl (Homo sapiens, UniProt P00519)

>  <pIC50>
5.15

$$$$

Given the compound Cc1cn(-c2cc(NC(=O)c3ccc(C)c(-c4ccc5c(NC(=O)C6CC6)n[nH]c5c4)c3)cc(C(F)(F)F)c2)cn1 [Compound 16] and test system Bcr-Abl (Homo sapiens, UniProt P00519), the measured pIC50 is 6.66

Given the compound CCN1CCN(Cc2ccc(NC(=O)c3cccc(-c4ccc5c(NC)n[nH]c5c4)c3)cc2C(F)(F)F)CC1 [Compound 2] and test system Bcr-Abl (Homo sapiens, UniProt P00519), the measured pIC50 is 7.30

Given the compound CCN1CCN(Cc2ccc(NC(=O)Nc3cccc(-c4ccc5c(NC(=O)C6CC6)n[nH]c5c4)c3)cc2C(F)(F)F)CC1 [Compound 21] and test system Bcr-Abl (Homo sapiens, UniProt P00519), the measured pIC50 is 6.28

Given the compound Cc1ccc(C(=O)Nc2cccc(C(F)(F)F)c2)cc1Nc1ccc2c(NC(=O)C3CC3)n[nH]c2c1 [Compound 25] and test system Bcr-Abl (Homo sapiens, UniProt P00519), the measured pIC50 is 5.14

Given the compound CCOC(=O)c1cccc(-c2ccc3c(NC(=O)c4ccc(N5CCN(C)CC5)cc4)n[nH]c3c2)c1 [Compound 27] and test system Bcr-Abl (Homo sapiens, UniProt P00519), the measured pIC50 is 7.15

Given the compound Cc1cn(-c2cc(NC(=O)c3cccc(-c4ccc5c(NC(=O)C6CC6)n[nH]c5c4)c3)cc(C(F)(F)F)c2)cn1 [Compound 6] and test system Bcr-Abl (Homo sapiens, UniProt P00519), the measured pIC50 is 5.51
